TEST SYSTEM: p97 (Homo sapiens)
Sequence (P55072 2-806 limits assumed): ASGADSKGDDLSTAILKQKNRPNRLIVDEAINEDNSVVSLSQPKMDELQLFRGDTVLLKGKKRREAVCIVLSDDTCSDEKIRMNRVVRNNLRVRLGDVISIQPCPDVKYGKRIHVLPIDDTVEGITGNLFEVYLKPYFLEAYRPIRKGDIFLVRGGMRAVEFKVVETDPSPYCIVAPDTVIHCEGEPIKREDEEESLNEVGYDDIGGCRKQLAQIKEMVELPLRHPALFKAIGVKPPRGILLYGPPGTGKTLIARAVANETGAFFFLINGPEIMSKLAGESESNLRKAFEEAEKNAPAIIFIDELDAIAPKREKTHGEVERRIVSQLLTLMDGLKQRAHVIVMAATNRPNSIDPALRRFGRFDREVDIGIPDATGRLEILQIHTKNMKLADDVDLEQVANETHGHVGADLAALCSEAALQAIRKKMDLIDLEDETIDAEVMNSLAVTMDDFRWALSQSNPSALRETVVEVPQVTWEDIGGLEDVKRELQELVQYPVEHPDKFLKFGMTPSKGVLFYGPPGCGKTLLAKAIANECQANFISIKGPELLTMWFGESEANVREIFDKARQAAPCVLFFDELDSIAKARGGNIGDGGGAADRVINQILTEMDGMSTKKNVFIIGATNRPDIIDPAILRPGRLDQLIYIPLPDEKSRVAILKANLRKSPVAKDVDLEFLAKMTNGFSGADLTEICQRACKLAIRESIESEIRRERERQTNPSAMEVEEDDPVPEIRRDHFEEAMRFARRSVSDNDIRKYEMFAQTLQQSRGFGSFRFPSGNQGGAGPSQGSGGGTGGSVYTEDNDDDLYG
TEST NAME: p97 ATPase assay (Kinase Glo Plus; biomol green for compounds that interfere with luciferase)
Type: biochemical
CONDITION CONTEXT: purified p97, ATP, 60 min room temperature; mean +/- standard error
The class of a record is decided solely by its measured IC50; consult low bracket (below 2 µM), middle bracket (2 µM to below 4 µM), high bracket (4 µM or more)

# input Class label required: COc1cccc2c(NCc3ccccc3)nc(N(C)Cc3ccccc3)nc12 [XI-12]
# output high bracket

# input Lookup Fc1cccc(CNc2nc(Nc3cccc(Cl)c3)nc3ccccc23)c1 [III-13]
# output low bracket

# input Lookup Cc1cccc(CNc2nc(NCc3ccccc3)c3ccccc3n2)c1 [IV-11]
# output middle bracket
